// data source = PubChem BioAssay AID504834

test: Primary qHTS for delayed death inhibitors of the malarial parasite plastid, 96 hour incubation; settings: P. falciparum luciferase reporter growth; series mostly up to 28.7 µM
The campaign covered roughly 320,000 compounds. About 22,000 (6.9%) were called active. About 27% were inconclusive and are not listed. The call rests on the fitted dose curve; in most records, active means well fitted inhibition curve with a large enough effect; inconclusive means small, poorly fitted or top-dose-only effect, or another doubt; inactive means no such curve, though single readings can be large or run the other way. Only a selection was taken, and actives are over-represented in it overall.
Respond only with the outcome that fits, drawn from yes (active), no (inactive)

Examples from the recorded data:
CCN(CC(=O)NCc1cccs1)C(=O)/C=C/c1ccc(C)cc1 = no
Cc1cccc(NC(=S)NCCc2ccc(Cl)cc2)c1C = no
CCOC(=O)COc1ccc([N+](=O)[O-])cc1 = yes
Clc1ccc(C2=CSC3=Nc4cccc5cccc(c45)N23)cc1 = yes
CN1CCN(c2ccc(NC(=O)c3ccccc3)cc2)CC1 = no

Okay, now this compound:
[Q] Status in this test for COc1ccc(N2C(=O)c3ccccc3NC2c2ccc(OC)c(CN3CCOCC3)c2)cc1 (configuration not stated) ?
[A] no

---

assay: Primary qHTS for delayed death inhibitors of the malarial parasite plastid, 96 hour incubation; settings: P. falciparum luciferase reporter growth; series mostly up to 28.7 µM
About 22,000 (6.9%) of roughly 320,000 compounds were called active. Another 27% or so got no clear call; they are omitted. The call rests on the fitted dose curve; in most records, active means well fitted inhibition curve with a large enough effect; inconclusive means small, poorly fitted or top-dose-only effect, or another doubt; inactive means no such curve, though single readings can be large or run the other way. Many of the other results were omitted from the sample, so actives are more common in it than they were.
Pick one: active, inactive

Cc1ccc2nc(-c3ccccc3)cc(C(=O)O)c2c1 = inactive
CC(=O)c1c(C)oc2ccc(NS(=O)(=O)c3ccccc3)cc12 = inactive
CCC(CCC(C)C1CCC2C3CC=C4CC(O)CC[C@@]4(C)C3CC[C@@]12C)C(C)C (stereo not given in full) = inactive
Oc1ccc(-c2cccc(-c3ccc(O)cc3)c2)cc1 = inactive
CCCc1cc(=O)oc2c(C)c(OCC(=O)Nc3ccccn3)ccc12 = inactive
Cc1ccc(-c2ncc(Cl)cc2-c2ccc(S(C)(=O)=O)cc2)cn1 = active
Cc1ccc2cc(/C=N/NC(=O)[C@@H]3CCCN3)c(Cl)nc2c1 = inactive
Cc1ccc(NC(=O)C(CC(=O)O)C2CCCO2)c(C)c1 (stereo not given) = inactive

[Q] Assay outcome for COc1ccc(N2CCN(S(=O)(=O)c3ccc4c(c3)NC(=O)C(C)C(=O)N4)CC2)cc1 (stereo not given) : what was it?
[A] inactive

[Q] Given Cc1c(S(=O)(=O)N2CC(C)CC(C)C2)c(=O)n(C)c(=O)n1C (stereo not given) , state the outcome it received in this test.
[A] inactive

[Q] Outcome? Cc1c(C(=O)N/N=C/c2ccccc2)[nH]c2c([N+](=O)[O-])cccc12
[A] inactive

[Q] Would you mind telling me which call this test gave Nc1ccn(CC(=O)N2CCN(c3ccccn3)CC2)c(=O)n1 ?
[A] inactive

[Q] Recorded call for CC(C)(C)c1cc(C(=O)N/N=C/c2ccc([N+](=O)[O-])s2)n[nH]1 ?
[A] active

[Q] // param item: O=C1CCC([N+](=O)[O-])C(c2ccccc2Br)N1 (stereo not given) ; yields the recorded call
[A] inactive

[Q] For Cc1ccc(C(=O)OCC(=O)NCc2cc(C)c(O)c(C)c2)cc1S(=O)(=O)N1CCCCC1 , which call appears in the assay record?
[A] active

---

test: Primary qHTS for delayed death inhibitors of the malarial parasite plastid, 96 hour incubation; conditions: P. falciparum luciferase reporter growth; series mostly up to 28.7 µM
Screen size: about 320,000 compounds; about 22,000 (6.9%) were called active. Inconclusive results (about 27%) are left out. The call rests on the fitted dose curve; in most records, active means well fitted inhibition curve with a large enough effect; inconclusive means small, poorly fitted or top-dose-only effect, or another doubt; inactive means no such curve, though single readings can be large or run the other way. The list comes from a sample in which actives are over-represented; it also holds close analogues and randomly drawn compounds.
Outcomes you can answer with include only these: active, inactive

Example entries and their recorded answers appear below.
COc1ccc(N2CCN(C(=O)CN3C(=O)COc4ccccc43)CC2)cc1 = inactive
Cc1c(C(=O)N2CCCc3ccccc32)sc2nc(-c3ccccc3)cn12 = inactive
COc1cccc(/C=N\NC(=O)C2=NNC(=O)C2C)c1O (stereo not drawn) = active
Cc1ccc(S(=O)(=O)NC(=O)Nc2nc(-c3ccc(F)c(F)c3)cs2)cc1 = inactive
O=C(CN1CCCCCC1)Nc1ccc(Br)cc1Br = inactive
COc1cccc2sc(NNC(=O)c3nc4ccccc4s3)nc12 = active
COCCn1c(SCc2nc3cc(OC)c(OC)cc3c(=O)[nH]2)nnc1-c1ccncc1 = inactive
O=C(NCCNc1ccccc1[N+](=O)[O-])c1ccccc1F = inactive

[Q] Which outcome was entered for the compound O=C(CN1CCCCCC1)Nc1ccc(Br)cc1[N+](=O)[O-] in this test?
[A] inactive

[Q] Could you kindly confirm the outcome this assay logged for COc1ccc(S(=O)(=O)NCC(c2ccc(C)cc2)N2CCN(C)CC2)cc1OC (stereo not drawn) ?
[A] inactive

[Q] Hi, sorry to bother you, what did the test record for Cn1c(=NC(=O)CSCC(=O)N2CCCCC2)sc2ccccc21 ?
[A] inactive

[Q] What classification did COc1ccc(-c2cc(C(F)(F)F)nc(NCc3cccnc3)n2)cc1 end up with in this test?
[A] active

[Q] Lab log entry: COc1cccc(/C=N/NC(=O)c2[nH]nc3c2CCc2ccccc2-3)c1O — outcome as called in the assay?
[A] inactive
